Origin of measurements: PubChem BioAssay

target_or_system: Torsin-1A-interacting protein 2 (Homo sapiens)
method_notes: LULL1 binders on small-molecule microarray, primary screen, cell lysate, human LULL1 lysate, 635/667 nm fluorescence (AID 1092);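 also: probe is lysate of COS7 cells overexpressing human LULL1; score merges per-feature 667 nm fluorescence with signal-to-noise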
condition_parameters: hLULL1 lysate binding, 635 nm fluorescence, higher = more signal
endpoint_name: composite z-score
Would you mind answering with just the numeric figure?

Consider the reported composite z-score for these molecules:
1. O=C1C=C[C@@H](O)[C@@H]2[C@@H]3C(=O)N(Cc4ccccc4)C(=O)[C@@H]3CC[C@@H]12 | 0.0218
2. CC(CCN1CCCc2nc(C)c(C)cc21)=NOC[C@@H](C)[C@H](OCc1ccccc1)C(C)C | 1.4
3. COc1ccc(OC[C@H]2CN3[C@@H](CC[C@@H](C)[C@@H]3c3ccc(Br)cc3)C(=O)O2)cc1 | 0.184

Would you kindly look at the next entry?
Tell me its composite z-score given "CC(C)=CCCC(C)=CCON=C1C[C@@H](O)[C@@H](O)[C@@H]2[C@@H]3C(=O)N([C@@H](C)c4ccccc4)C(=O)[C@@H]3CC[C@@H]12" as the entry. 0.676

----------
target_or_system: E3 ubiquitin-protein ligase XIAP (Homo sapiens) (UniProt P98170)
Sequence (P98170 whole entry, looked up): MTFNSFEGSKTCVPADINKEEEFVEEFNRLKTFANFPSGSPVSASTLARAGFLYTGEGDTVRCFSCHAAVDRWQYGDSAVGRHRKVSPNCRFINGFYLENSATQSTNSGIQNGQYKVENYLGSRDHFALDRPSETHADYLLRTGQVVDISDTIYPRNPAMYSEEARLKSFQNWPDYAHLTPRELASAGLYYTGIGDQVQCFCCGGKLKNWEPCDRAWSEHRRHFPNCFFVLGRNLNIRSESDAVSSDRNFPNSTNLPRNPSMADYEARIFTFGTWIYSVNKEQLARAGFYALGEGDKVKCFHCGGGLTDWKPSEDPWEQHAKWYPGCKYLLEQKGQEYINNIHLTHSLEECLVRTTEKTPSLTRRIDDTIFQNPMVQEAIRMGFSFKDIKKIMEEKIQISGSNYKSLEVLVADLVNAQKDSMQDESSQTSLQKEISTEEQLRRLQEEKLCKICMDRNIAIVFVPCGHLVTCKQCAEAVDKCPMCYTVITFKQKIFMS
method_notes: XIAP binders, primary screen, biophysical, small-molecule microarray, fluorescence 635 nm (AID 1181);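 also: score merges 667 nm emission and signal to noise over triplicate slides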
condition_parameters: small-molecule microarray binding, higher = more signal
Use composite z-score to assign classes; range list: bottom range: < -0.07; center range: ≥ -0.07 and < 0.1; top range: ≥ 0.1

Some entries whose results are on file:
1. C[C@@H]1CC[C@H]2C(=O)OC(Cc3ccccc3)CN2[C@H]1c1ccc(Br)cc1 (some centres not stated) | center range
2. CCOC(=O)CCN1C(=O)[C@H]2[C@H]3[C@H](O)[C@H](O)CC(=NOCC=C(C)CCC=C(C)C)[C@H]3CC[C@H]2C1=O | center range
3. CC#CCOCCC=C1c2ccccc2[C@@H](OC)[C@@H]1C | top range

# classify by composite z-score band: "CCN1C(=O)[C@H]2[C@H]3[C@H](O)[C@H](O)CC(=NOCC=C(C)CCC=C(C)C)[C@@H]3CC[C@H]2C1=O" top range

# classify by composite z-score band: COC(=O)[C@H](C)NC(=O)CCC1CC(OC(=O)NCCc2ccc(F)cc2)CC2(CCCC(COC(=O)NCC3CCCCC3)O2)O1 (some centres not stated) top range

# classify by composite z-score band: "COC(=O)[C@@H]1CC[C@H](C)[C@@H](c2ccc(Br)cc2)N1C[C@@H](O)CN=[N+]=[N-]" center range

# classify by composite z-score band: "COc1ccc(COC(=O)NN=C2C[C@@H](O)[C@@H](O)[C@@H]3[C@@H]4C(=O)N([C@@H](C)c5ccccc5)C(=O)[C@@H]4CC[C@H]23)cc1" center range

# classify by composite z-score band: "Cc1ccc2[nH]c3nc(CCCn4ccnc4-c4ccccc4)nnc3c2c1" bottom range

# classify by composite z-score band: C=CCOCC1CN2[C@@H](CC[C@@H](C)[C@@H]2c2ccc(Br)cc2)C(=O)O1 (some centres not stated) bottom range

# classify by composite z-score band: "COc1ccc2c(c1)O[C@@H](c1cccc(C(F)(F)F)c1)[C@H](O)C2=O" center range

# classify by composite z-score band: "CON=C(C)CCN1CCCc2nc(C)c(C)cc21" top range

# classify by composite z-score band: "O=C1[C@H]2[C@H]3[C@H](O)[C@H](O)CC(=NO[C@@H]4O[C@H](CO)[C@@H](O)[C@H](O)[C@H]4O)[C@@H]3CC[C@H]2C(=O)N1C[C@@H]1CCCO1" bottom range

# classify by composite z-score band: "COC(=O)CC=C[C@@H](C)[C@@H](C=NOC[C@@H](O)COCc1ccco1)NS(=O)(=O)c1ccc(C)cc1" bottom range

# classify by composite z-score band: "CC(CCN1CCCCc2nc(C)c(C)cc21)=NO[C@@H](C)c1cc(-c2c(C)cc(C)cc2C)no1" top range

# classify by composite z-score band: "CON=C(C)CCC(=O)OC[C@H]1O[C@H](C#Cc2ccccc2)C=C[C@@H]1Oc1ccc(C)cc1" top range

# classify by composite z-score band: "CC(CCN1CCCc2nc(C)c(C)cc21)=NO[C@H](C)c1cn([C@@H]2COC[C@H]2O)nn1" center range

# classify by composite z-score band: "COc1ccc(COC(=O)NN=C2C[C@@H](O)[C@@H](O)[C@@H]3[C@@H]4C(=O)N(C[C@@H]5CCCO5)C(=O)[C@@H]4CC[C@H]23)cc1" center range

# classify by composite z-score band: "CO[C@@H]1COC(=O)[C@@H]2CCCN2C(=O)[C@@H](C)COC(=O)CCC[C@H]1C" top range

# classify by composite z-score band: CC(C)=NOC(C)CN1CCCc2nc(C)c(C)cc21 (configuration not stated) center range

# classify by composite z-score band: "CC(C)=CCCC(C)=CCON=C1C[C@@H](O)[C@@H](O)[C@@H]2[C@@H]3C(=O)N(c4cccc(Oc5ccccc5)c4)C(=O)[C@@H]3CC[C@H]12" bottom range

# classify by composite z-score band: CCOC(=O)[C@H](Cc1ccccc1)NC(=O)CCC1CC(OC(=O)NCc2cccc3ccccc23)CC2(CCCC(COC(=O)NCC3CCCCC3)O2)O1 (some centres not stated) center range

# classify by composite z-score band: CC(C)=NOC(C)CN1CCCCc2nc(C)c(C)cc21 (configuration not stated) top range

# classify by composite z-score band: CCOC(=O)[C@H](CC(C)C)NC(=O)CCC1CC(OC(=O)NCc2ccc3c(c2)OCO3)CC2(CCCC(COC(=O)NCCOc3ccccc3)O2)O1 (some centres not stated) top range

# classify by composite z-score band: "CCN1C(=O)[C@H]2[C@H]3[C@H](O)[C@H](O)CC(=NO[C@@H]4O[C@H](COC(C)=O)[C@@H](OC(C)=O)[C@H](OC(C)=O)[C@H]4OC(C)=O)[C@@H]3CC[C@H]2C1=O" top range

# classify by composite z-score band: "O=C1[C@H]2[C@H]3[C@H](O)[C@H](O)CC(=NOC[C@@H](O)COCc4ccco4)[C@@H]3CC[C@H]2C(=O)N1C1CCCCC1" bottom range

# classify by composite z-score band: "C[C@@H]1CC[C@H]2C(=O)O[C@@H](COc3ccc(C(C)(C)C)cc3)CN2[C@H]1c1ccc(Br)cc1" bottom range

# classify by composite z-score band: "C=CC[C@@H]1C=C[C@H](ON=C(C)CCN2CCCCc3nc(C)c(C)cc32)[C@@H](CO)O1" top range

# classify by composite z-score band: COC(=O)C(C(=O)OC)C1CCCC(=O)C1 (configuration not stated) bottom range

# classify by composite z-score band: "CCOC(=O)NN=C1C[C@@H](O)[C@@H](O)[C@@H]2[C@@H]3C(=O)N(CC)C(=O)[C@@H]3CC[C@H]12" center range

# classify by composite z-score band: COC(=O)[C@H](C)NC(=O)CCC1CC(OC(=O)NCc2cccc3ccccc23)CC2(CCCC(COC(=O)NCc3ccccc3)O2)O1 (some centres not stated) bottom range

# classify by composite z-score band: "CCOC(=O)CCN1C(=O)[C@H]2[C@H]3[C@H](O)[C@H](O)CC(=NNC(=O)OCc4ccccc4)[C@H]3CC[C@H]2C1=O" bottom range

# classify by composite z-score band: "CO[C@@H]1COC(=O)[C@H](CCSC)NC(=O)CC=C[C@@H](C)COC(=O)[C@@H]2CCCN2C(=O)CC=C[C@H]1C" center range

----------
method_notes: binders of probe aFGF10 on microarray, primary screen, stem cell growth factor project, biochemical, small-molecule microarray, fluorescence 635/667 (AID 1071);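 also: score merges 667 nm spot intensity and signal to noise from triplicate slides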
condition_parameters: higher = more signal
endpoint_name: composite z-score
Would you mind answering with just the numeric figure?

1. CC(=O)OC[C@H]1O[C@H](C#CCCc2ccccc2)C=C[C@@H]1OC(C)=O | 0.335
2. COc1ccc(COC(=O)NN=C2C[C@@H](O)[C@@H](O)[C@@H]3[C@@H]4C(=O)N([C@@H](C)c5ccccc5)C(=O)[C@@H]4CC[C@@H]23)cc1 | 0.042

Tell me its composite z-score given CCOC(=O)[C@H](Cc1ccccc1)NC(=O)CCC1CC(OC(=O)NCCc2ccc(F)cc2)CC2(CCCC(COC(=O)NCc3cccc(C(F)(F)F)c3)O2)O1 (some centres undefined) as the entry. 0.758

Tell me its composite z-score given "CC(C)=CCCC(C)=CCON=C1C[C@@H](O)[C@@H](O)[C@@H]2[C@@H]3C(=O)N([C@@H](C)c4ccccc4)C(=O)[C@@H]3CC[C@@H]12" as the entry. 0.374

----------
System: Sonic hedgehog protein (Shh)
method_notes: small-molecule binders of Shh protein, primary screen, biochemical, small-molecule microarray, 635/667 nm fluorescence (AID 1151);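 also: Shh protein binding to compounds spotted on small-molecule microarray slides; score combines spot fluorescence intensity with signal-to-noise across triplicate slides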
condition_parameters: small-molecule microarray binding, 635 nm fluorescence; higher = more signal
So basically: composite z-score at 0.3 or higher? That is YES. Lower than 0.3? That is NO.

Some entries whose results are on file:
1. C[C@@H](c1ccccc1)N1C(=O)[C@H]2[C@H]3[C@H](O)[C@H](O)CC(=NNC(=O)OCc4ccccc4)[C@@H]3CC[C@H]2C1=O | YES
2. O=C1[C@H]2[C@H]3[C@H](O)[C@H](O)CC(=NO[C@@H]4O[C@H](CO)[C@@H](O)[C@H](O)[C@H]4O)[C@@H]3CC[C@H]2C(=O)N1C[C@@H]1CCCO1 | YES
3. COC(=O)[C@H](C)NC(=O)CCC1CC(OC(=O)NCc2cccc3ccccc23)CC2(CCCC(COC(=O)NCCC(C)C)O2)O1 (some centres not stated) | YES
4. CCOC(=O)[C@H](Cc1ccccc1)NC(=O)CCC1CC(OC(=O)NCc2cccc3ccccc23)CC2(CCCC(COC(=O)NCCc3ccccc3OC)O2)O1 (some centres not stated) | YES

Textbook exercise: given the entry "COc1cccc([C@H](O)Cn2cc(-c3ccc(CON=C(C)C)cc3)nn2)c1" , state whether its composite z-score is greater than or equal to 0.3. NO

Textbook exercise: given the entry "C[C@@H](c1ccccc1)N1C(=O)[C@H]2[C@H]3[C@H](O)[C@H](O)CC(=NOCc4ccccc4)[C@@H]3CC[C@H]2C1=O" , state whether its composite z-score is greater than or equal to 0.3. NO

Textbook exercise: given the entry O=C(NCCC[N+]1=CC=NC1c1ccccc1)N1CCCc2nc(-c3ccc(Br)cc3)ccc21 (configuration not stated) , state whether its composite z-score is greater than or equal to 0.3. YES
